Assay: Maximum plasma concentration (Cmax) of compound (19.2 mg/kg) after po administration was determined Sprague-Dawley rat
Assay type: ADME, organism-based
Design: dose 19.2 mg/kg, route oral
quantity: Cmax (ng/mL)
Give bare numbers, in ng/mL.

## Input Query Cmax for C/C(S)=N/C[C@H]1CN(c2ccc3c(c2)C[C@@H](C)N3C=O)C(=O)O1
## Output 1130

----------
Test: Maximum plasma concentration (Cmax) of compound (25 mg/kg) after po administration was determined Sprague-Dawley rat
Assay type: ADME, organism-based
Design: dose 25 mg/kg, route oral
quantity: Cmax (ng/mL)
Give bare numbers, in ng/mL.

## Input Query Cmax for CC(=O)NC[C@H]1CN(c2ccc(N3CCOCC3)c(F)c2)C(=O)O1
## Output 15800

----------
Assay: Tmax of compound (19.76 mg/kg) after po administration was determined in Sprague-Dawley rat
Assay type: ADME, organism-based
Conditions: in vivo
quantity: Tmax (min)
Answers are plain numbers, in min.

## Input Query Tmax for CC(=O)NC[C@H]1CN(c2ccc3c(c2)C[C@@H](C)N3C=O)C(=O)O1
## Output 30

----------
Assay: Maximum plasma concentration (Cmax) of compound (9.84 mg/kg) after iv administration was determined Sprague-Dawley rat
Format: ADME, organism-based
Set-up: dose 9.84 mg/kg, route intravenous
quantity: Cmax
I'd appreciate it if you wrote the number followed by its unit.

## Input Query Cmax for CC(=O)NC[C@H]1CN(c2ccc3c(c2)C[C@@H](C)N3C=O)C(=O)O1
## Output 16100 ng/mL

----------
System: Moraxella catarrhalis
Test: In vitro antibacterial activity against Moraxella catarrhalis 30607 (b-lactamase+).
Type: functional
Consider the cut-off 4 µg/mL. If the recorded MIC is strictly smaller, the label is Y; if not, the label is N.

The following compounds have reported results that may help.
{"columns": ["compound_structure", "label_class"],
 "data": [
  ["C/C(S)=N/C[C@H]1CN(c2ccc3c(c2)OC[C@@H](C)N3C=O)C(=O)O1", "Y"],
  ["C/C(S)=N/C[C@H]1CN(c2ccc3c(c2)CC[C@@H](C)N3C=O)C(=O)O1", "Y"],
  ["CC(=O)NC[C@H]1CN(c2ccc3c(c2)OC[C@@H](C)N3C=O)C(=O)O1", "N"],
  ["CC(=O)NC[C@H]1CN(c2ccc3c(c2)CC[C@H](C)N3C=O)C(=O)O1", "N"],
  ["CC(=O)NC[C@H]1CN(c2ccc3c(c2)C[C@@H](C)N3C(=O)CO)C(=O)O1", "N"],
  ["C/C(S)=N/C[C@H]1CN(c2ccc3c(c2)CC[C@H](C)N3C=O)C(=O)O1", "Y"],
  ["C/C(S)=N/C[C@H]1CN(c2ccc3c(c2)C[C@@H](C)N3C(=O)CO)C(=O)O1", "Y"],
  ["CC(=O)NC[C@H]1CN(c2ccc3c(c2)C[C@H](C)N3)C(=O)O1", "N"]
]}

Attention now turns to another entry.
## Input For this compound, is MIC lower than 4 µg/mL? CC(=O)NC[C@H]1CN(c2ccc3c(c2)OC[C@H](C)N3C=O)C(=O)O1
## Output N

----------
Tested on: Enterococcus faecalis
Experiment: In vitro antibacterial activity against vancomycin susceptible Enterococcus faecalis UC19217 (VSEF)
Format: functional
Please go through the items and note down their MIC.
One number for each entry, in µg/mL.

Reference set (4 entries):
{"columns": ["compound_structure", "MIC, µg/mL"],
 "data": [
  ["CC(=O)NC[C@H]1CN(c2ccc3c(c2)CC[C@H](C)N3C=O)C(=O)O1", 8],
  ["CC(=O)NC[C@H]1CN(c2ccc3c(c2)C[C@H](C)N3C=O)C(=O)O1", 16],
  ["CC(=O)NC[C@H]1CN(c2ccc3c(c2)C[C@@H](C)N3C(=O)CO)C(=O)O1", 2],
  ["CC(=O)NC[C@H]1CN(c2ccc3c(c2)CC[C@@H](C)N3C=O)C(=O)O1", 1]
]}

## Input Query MIC for C/C(S)=N/C[C@H]1CN(c2ccc3c(c2)CC[C@H](C)N3C=O)C(=O)O1
## Output 2

----------
Assay: Half life of compound (9.84 mg/kg) after po administration was determined in Sprague-Dawley rat
Type: ADME, organism-based
Details: in vivo
quantity: half-life (min)
Give bare numbers, in min.

## Input Query half-life for CC(=O)NC[C@H]1CN(c2ccc3c(c2)C[C@@H](C)N3C=O)C(=O)O1
## Output 48

----------
Experiment: Clearance (Cl) of compound (9.83 mg/kg) after iv administration was determined in Sprague-Dawley rat
Assay type: ADME, organism-based
Details: in vivo
quantity: clearance (mL/min/kg)
Numbers only, in mL/min/kg.

## Input Query clearance for C/C(S)=N/C[C@H]1CN(c2ccc3c(c2)C[C@@H](C)N3C=O)C(=O)O1
## Output 28.9

----------
Test: Tmax of compound (25 mg/kg) after po administration was determined in Sprague-Dawley rat
Type: ADME, organism-based
Conditions: in vivo
quantity: Tmax (min)
Answers are plain numbers, in min.

## Input Query Tmax for CC(=O)NC[C@H]1CN(c2ccc(N3CCOCC3)c(F)c2)C(=O)O1 [LINEZOLID]
## Output 18

----------
Assay: Tmax of compound (19.2 mg/kg) after po administration was determined in Sprague-Dawley rat
Type: ADME, organism-based
Conditions: in vivo
quantity: Tmax (min)
Numbers only, in min.

## Input Query Tmax for C/C(S)=N/C[C@H]1CN(c2ccc3c(c2)C[C@@H](C)N3C=O)C(=O)O1
## Output 30

----------
System: Staphylococcus epidermidis
Test: In vitro antibacterial activity against methicillin resistant Staphylococcus epidermis US 12084 (MRSE)
Type: functional
quantity: MIC

{"columns": ["compound_structure", "MIC"],
 "data": [
  ["C/C(S)=N/C[C@H]1CN(c2ccc3c(c2)C[C@@H](C)N3C=O)C(=O)O1", "< 0.5 µg/mL"],
  ["CC(=O)NC[C@H]1CN(c2ccc3c(c2)C[C@H](C)N3)C(=O)O1", "16 µg/mL"],
  ["C/C(S)=N/C[C@H]1CN(c2ccc3c(c2)C[C@@H](C)N3C(=O)CO)C(=O)O1", "< 0.5 µg/mL"],
  ["CC(=O)NC[C@H]1CN(c2ccc3c(c2)C[C@@H](C)N3C=O)C(=O)O1", "< 0.5 µg/mL"],
  ["CC(=O)NC[C@H]1CN(c2ccc3c(c2)C[C@H](C)N3C(=O)CO)C(=O)O1", "2 µg/mL"]
]}

Provide the reported MIC of each entry below, same order.
1. CC(=O)NC[C@H]1CN(c2ccc3c(c2)OC[C@@H](C)N3C=O)C(=O)O1
2. C/C(S)=N/C[C@H]1CN(c2ccc3c(c2)OC[C@@H](C)N3C=O)C(=O)O1
3. CC(=O)NC[C@H]1CN(c2ccc(N3CCOCC3)c(F)c2)C(=O)O1

## Output
1: < 1 µg/mL; 2: < 0.5 µg/mL; 3: < 1 µg/mL

Provide the reported MIC of each entry below, same order.
1. C/C(S)=N/C[C@H]1CN(c2ccc3c(c2)CC[C@@H](C)N3C=O)C(=O)O1
2. CC(=O)NC[C@H]1CN(c2ccc3c(c2)CC[C@H](C)N3C=O)C(=O)O1

## Output
["< 0.5 µg/mL", "< 2 µg/mL"]

Provide the reported MIC of each entry below, same order.
1. CC(=O)NC[C@H]1CN(c2ccc3c(c2)CC[C@@H](C)N3C=O)C(=O)O1
2. CC(=O)NC[C@H]1CN(c2ccc3c(c2)OC[C@H](C)N3C=O)C(=O)O1

## Output
1: < 0.5 µg/mL; 2: < 4 µg/mL

----------
Assay: Steady state volume distribution (Vss) of compound(9.83 mg/kg) after iv administration was determined in Sprague-Dawley rat
Type: ADME, organism-based
Settings: in vivo, read-out: Vss
quantity: Vd (L/kg)
Give bare numbers, in L/kg.

## Input Query Vd for C/C(S)=N/C[C@H]1CN(c2ccc3c(c2)C[C@@H](C)N3C=O)C(=O)O1
## Output 0.64

----------
Assay: Oral bioavailability of compound (19.76 mg/kg) after po administration was determined in Sprague-Dawley rat
Type: ADME, organism-based
Settings: in vivo
quantity: bioavailability (%)
One number for each entry, in %.

## Input Query bioavailability for CC(=O)NC[C@H]1CN(c2ccc3c(c2)C[C@@H](C)N3C=O)C(=O)O1
## Output 56

----------
Test system: Enterococcus faecalis
Assay: In vitro antibacterial activity against vancomycin susceptible Enterococcus faecalis UC19217 (VSEF)
Assay type: functional
quantity: MIC (µg/mL)
Answers are plain numbers, in µg/mL.

Provide the reported MIC of each entry below, same order.
1. C/C(S)=N/C[C@H]1CN(c2ccc3c(c2)OC[C@@H](C)N3C=O)C(=O)O1
2. C/C(S)=N/C[C@H]1CN(c2ccc3c(c2)C[C@H](C)N3C=O)C(=O)O1
3. CC(=O)NC[C@H]1CN(c2ccc3c(c2)C[C@@H](C)N3C=O)C(=O)O1
4. CC(=O)NC[C@H]1CN(c2ccc3c(c2)OC[C@@H](C)N3C=O)C(=O)O1

## Output
1
2
1
4
